- Assay Target: CCKA receptor (Rattus norvegicus, UniProt P30551)
- Construct: Pancreatic membranes were prepared in a similar way but by Charpentier et al; from tissue; host or cells: rat pancreas membranes
- Test Description: 125I-CCK-8 receptor binding assay, CCKA (rat pancreas membranes)
- Protocol Conditions: Table 3, diphenyl pyrazolyl ureas; rat pancreas, 125I-Bolton-Hunter CCK 25 pM; read-out: IC50 CCKA
Metric: IC50 (nM)

[1] Cc1cccc(NC(=O)Nc2c(C)n(-c3ccccc3)n(-c3ccccc3)c2=O)c1
[2] COc1cccc(NC(=O)Nc2c(C)n(-c3ccccc3)n(-c3ccccc3)c2=O)c1
Could you determine which record has the numerically smaller IC50? Candidates: 1 and 2 Refer to your chosen entry by its label in the reply.
2
(2: 10 nM, 1: 20 nM)

---

- Assay Target: CCKB receptor (Cavia porcellus, UniProt H0VZC5)
- Construct: Male guinea pig brain tissues were prepared according to the modified method described by Saita et al; from tissue; host or cells: guinea pig cerebral cortex membranes
- Sequence (H0VZC5 1-426): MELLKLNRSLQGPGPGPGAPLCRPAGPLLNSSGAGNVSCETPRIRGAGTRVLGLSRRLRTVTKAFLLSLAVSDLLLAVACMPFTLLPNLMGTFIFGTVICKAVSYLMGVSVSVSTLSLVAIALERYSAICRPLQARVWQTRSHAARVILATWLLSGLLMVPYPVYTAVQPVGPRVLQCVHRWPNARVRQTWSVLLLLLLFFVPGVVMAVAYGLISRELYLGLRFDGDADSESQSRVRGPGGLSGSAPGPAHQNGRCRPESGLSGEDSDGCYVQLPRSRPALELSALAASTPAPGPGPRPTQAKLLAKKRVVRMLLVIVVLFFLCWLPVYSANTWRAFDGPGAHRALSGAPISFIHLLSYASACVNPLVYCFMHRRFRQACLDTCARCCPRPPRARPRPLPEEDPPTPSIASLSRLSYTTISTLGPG
- Test Description: 125I-CCK-8 receptor binding assay, CCKB (guinea pig cerebral cortex membranes)
- Protocol Conditions: Table 4, diphenyl pyrazolinone amides; guinea pig cerebral cortex, 125I-Bolton-Hunter CCK 25 pM; read-out: IC50 CCKB
Metric: IC50 (nM)

[a] Cc1c(NC(=O)c2cc3ccccc3[nH]2)c(=O)n(-c2ccccc2)n1-c1ccccc1 [Example 36]
[b] Cc1c(NC(=O)CCc2c[nH]c3ccccc23)c(=O)n(-c2ccccc2)n1-c1ccccc1 [Example 39]
[c] Cc1c(NC(=O)c2c[nH]c3ccccc23)c(=O)n(-c2ccccc2)n1-c1ccccc1 [Example 37]
Hey, can you sort those molecules up there by IC50, smallest first? Reply format: the labels, ordered as requested.
a, b, c

---

- Assay Target: CCKA receptor (Rattus norvegicus)
- Construct: Pancreatic membranes were prepared in a similar way but by Charpentier et al; from tissue; host or cells: rat pancreas membranes
- Sequence (P30551 1-444): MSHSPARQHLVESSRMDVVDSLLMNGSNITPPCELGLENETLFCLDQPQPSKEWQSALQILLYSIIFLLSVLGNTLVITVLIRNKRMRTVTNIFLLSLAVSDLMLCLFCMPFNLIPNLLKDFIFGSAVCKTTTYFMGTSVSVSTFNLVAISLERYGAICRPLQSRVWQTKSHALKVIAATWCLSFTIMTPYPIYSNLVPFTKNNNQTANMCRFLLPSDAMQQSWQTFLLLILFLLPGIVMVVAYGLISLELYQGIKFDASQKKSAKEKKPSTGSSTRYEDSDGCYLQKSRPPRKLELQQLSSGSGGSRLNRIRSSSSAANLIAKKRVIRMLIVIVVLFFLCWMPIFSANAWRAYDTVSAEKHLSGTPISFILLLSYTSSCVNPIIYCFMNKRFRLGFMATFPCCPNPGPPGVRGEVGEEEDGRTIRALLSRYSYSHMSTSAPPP
- Test Description: 125I-CCK-8 receptor binding assay, CCKA (rat pancreas membranes)
- Protocol Conditions: Table 2, phenylpyrazolinone amides; rat pancreas, 125I-Bolton-Hunter CCK 25 pM; read-out: IC50 CCKA
Metric: IC50 (nM)

# get_value(readout='IC50', item= Cc1c(NC(=O)CCc2c[nH]c3ccccc23)c(=O)n(-c2ccccc2)n1C )
1000

[a] Cc1c(NC(=O)Cc2c[nH]c3ccccc23)c(=O)n(-c2ccccc2)n1C
[b] Cc1c(NC(=O)c2cc3ccccc3[nH]2)c(=O)n(-c2ccccc2)n1C
Hi team, can someone confirm which has the larger IC50: a or b ? Thanks. Refer to your chosen entry by its label in the reply.
a
(a: 2000 nM, b: 80 nM)
